# self-cleavage annotations
B1: Twister Ribozyme (parent)
chain: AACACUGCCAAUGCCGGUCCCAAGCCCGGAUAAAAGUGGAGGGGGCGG

- Variants of: B1
- ASSAY DETAILS: self-cleavage, relative activity (ratio to wild type); higher = more cleavage; co-transcriptional
Answer with the value's number alone.

mutation_spec="A10U G42U" observation_type=self-cleavage reported_result=0.447

Lab book: self-cleavage of A1G G39A noted as 0.206

Form field self-cleavage, entry A23U G29C : 0.0484

Reported self-cleavage for C21U U37A was 0.0811

Query C15A A40U yields self-cleavage of 0.116

In plain terms, G16C A40G has a documented self-cleavage of 0.135

Form field self-cleavage, entry U18A U37A : 0.0711

Measured self-cleavage of C21A G47A : 0.135

// self-cleavage value for C20A A32G : 0.145

Lab note: C25U G42U gave self-cleavage of 0.0953

Kindly note the recorded self-cleavage for G7U A35G , which is 0.0839
